System: S. cerevisiae Mot1-301 ts growth rescue, BacTiter-Glo ATP luminescence
Protocol description: restored Mot1-301 yeast growth at 38.5C – whole organism, S. cerevisiae, Mot1-301 ts mutant, luminescence, dose retest, SUMOylation pathway inhibitor project, confirmation (AID 463204);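 further: growth at restrictive 38.5 degrees C of Mot1-301 OY566 strain; actives raise luminescence by restoring growth of the ts mutant at high temperature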
Calls of active or inactive are those of the source.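 How the source made its calls: active means AC50 no more than ten times the top concentration tested, that is within one log above it; inconclusive means flat curve fit with activity between 30% and 70%, or invalid poor fit; inactive means AC50 beyond ten times the top tested dose.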
Outcome field: choose from y (active), n (inactive)

Hi, sorry to bother you, what did the test record for O=C(CN1CCN(Cc2ccc(Cl)cc2)CC1)N/N=C/c1ccncc1 ?
n

Hi, sorry to bother you, what did the test record for O=C(NCCCn1ccnc1)Nc1cccc2ccccc12 ?
n

Hi, sorry to bother you, what did the test record for CC(C)CC(c1nnnn1C1CCCCC1)N1CCN(C(=O)c2ccco2)CC1 (centres undefined) ?
n

Hi, sorry to bother you, what did the test record for CCNCCNC(=O)c1c(O)c2c([nH]c1=O)CCCC2 ?
n

Hi, sorry to bother you, what did the test record for CC(=O)Nc1cccc2c1C(=O)N(c1ccccc1C)C2=O ?
n

Hi, sorry to bother you, what did the test record for COc1ccc(Cl)cc1C(=O)NCCc1ccc(S(=O)(=O)NC(=O)NC2CCCCC2)cc1 ?
n

Hi, sorry to bother you, what did the test record for CCN1CCCC1CNC(=O)Cn1cnc2ccc(S(=O)(=O)N3CCC(C)CC3)cc2c1=O (centres undefined) ?
n

Hi, sorry to bother you, what did the test record for CSc1ncccc1C(=O)NC1CCCc2c1cnn2-c1ccc(C)c(C)c1 (centres undefined) ?
n

Hi, sorry to bother you, what did the test record for Cc1cc(C)cc(C(=O)N2CCC3(CC2)NCCc2[nH]cnc23)c1 ?
n

Hi, sorry to bother you, what did the test record for CS(=O)(=O)NCc1ccc(C(=O)NC2CCCCC2)cc1 ?
n

Hi, sorry to bother you, what did the test record for CCOC(=O)C(C)(C)Sc1nc2c(cnn2-c2ccc(C)cc2)c(=O)[nH]1 ?
n

Hi, sorry to bother you, what did the test record for CCOC(=O)CSc1cc(C)nc2ccc(OC)cc12 ?
n

Hi, sorry to bother you, what did the test record for O=C(CC(c1ccccc1)c1ccccc1)NCCOCc1ccccc1 ?
n

Hi, sorry to bother you, what did the test record for COc1ccc(C(=O)NCC(=O)Nc2ccccc2)cc1OC ?
n

Hi, sorry to bother you, what did the test record for CCN(C(=O)Nc1ccccc1OC)c1c(N)n(Cc2ccccc2)c(=O)[nH]c1=O ?
n

Hi, sorry to bother you, what did the test record for Cc1cc(Cl)c2oc(C(=O)NC3CCC(O)CC3)c(C)c2c1 (centres undefined) ?
n

Hi, sorry to bother you, what did the test record for CC(C)(C)NC(=O)C1Cc2ccccc2CN1S(=O)(=O)c1ccc(F)cc1 (centres undefined) ?
n

Hi, sorry to bother you, what did the test record for CCS(=O)(=O)N1CCCC(C(=O)NCc2cccnc2)C1 (centres undefined) ?
n

Hi, sorry to bother you, what did the test record for O=C(CSc1nc(=O)n2ccccc2n1)N1CCN(c2ccccc2)CC1 ?
n

Hi, sorry to bother you, what did the test record for CN(CC(=O)N1CCc2[nH]c3ccc(F)cc3c2C1)CC1OCCO1 ?
n

Hi, sorry to bother you, what did the test record for O=C(CSc1nccc(=O)[nH]1)c1cc2ccccc2o1 ?
n

Hi, sorry to bother you, what did the test record for CC1(C)C2CC[C@]3(C)C(CC=C4[C@@H]5C[C@@](C)(CO)[C@@H](O)C[C@]56C[C@@H](OC6=O)[C@]43C)[C@@]2(C)CC[C@@H]1O (some centres undefined) ?
n

Hi, sorry to bother you, what did the test record for CCCOC(=O)c1ccc(O)c(OC)c1 ?
n

Hi, sorry to bother you, what did the test record for Cc1nnc(SCC(=O)NC(C)(C)C)n1NCc1ccc(Cl)cc1 ?
n

Hi, sorry to bother you, what did the test record for CC(C)[N+]1(C)[C@@H]2CC[C@@H]1CC(OC(=O)C(CO)c1ccccc1)C2 (some centres undefined) ?
n

Hi, sorry to bother you, what did the test record for O=C(NNC(=O)C12CC3CC(CC(C3)C1)C2)c1ccccn1 ?
y

Hi, sorry to bother you, what did the test record for COc1ccc(C(C)=O)cc1CN(c1ccccc1OC)S(=O)(=O)c1cccs1 ?
n

Hi, sorry to bother you, what did the test record for Cc1ccc(S(=O)(=O)n2cccc2C)cc1 ?
n

Hi, sorry to bother you, what did the test record for O=C1CC(c2c[nH]c3ccccc23)C(=O)N1c1ccccc1 (centres undefined) ?
n

Hi, sorry to bother you, what did the test record for COc1cc(C(=O)NCCC2=CCCCC2)cc(OC)c1OC ?
n

Hi, sorry to bother you, what did the test record for CC1CC(C)(C)N2C(=O)C3(Nc4ccccc4S3)c3cccc1c32 (centres undefined) ?
y

Hi, sorry to bother you, what did the test record for COc1ccccc1CNCc1cc(OC)c(OC)c(OC)c1 ?
n

Hi, sorry to bother you, what did the test record for O=C(N/N=C/c1cccs1)c1cncc(Br)c1 ?
n

Hi, sorry to bother you, what did the test record for Cc1cnc(C(=O)OCC(=O)Nc2ccc(C)c(S(=O)(=O)N(C)C)c2)cn1 ?
n
